Cited source: the supplement of paper PMC7877785

# TEST NAME: self-splicing fitness, log relative to wild type (ln ratio); higher = more splicing; Tetrahymena group I intron in knt gene, E. coli kanamycin selection, DiMSum; sequences stand for … in CUCUCU…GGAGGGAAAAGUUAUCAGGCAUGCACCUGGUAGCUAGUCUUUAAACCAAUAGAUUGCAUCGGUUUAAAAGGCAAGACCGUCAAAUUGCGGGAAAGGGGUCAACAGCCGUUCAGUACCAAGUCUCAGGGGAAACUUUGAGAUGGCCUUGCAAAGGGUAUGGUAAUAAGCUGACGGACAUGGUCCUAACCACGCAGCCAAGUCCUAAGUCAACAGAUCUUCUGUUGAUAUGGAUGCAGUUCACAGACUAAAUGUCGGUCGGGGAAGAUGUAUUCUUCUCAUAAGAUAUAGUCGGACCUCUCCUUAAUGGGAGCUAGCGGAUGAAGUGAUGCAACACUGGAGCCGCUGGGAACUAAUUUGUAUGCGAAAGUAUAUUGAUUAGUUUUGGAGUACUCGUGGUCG;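 further: selection with 25 µg/mL kanamycin versus none on LB agar overnight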
# PARTICULARS: 30 °C
Class membership depends on self-splicing fitness (ln) alone; the intervals are bottom bin = under -3, middle bin = from -3 up to -2, top bin = -2 and over

Form field 'band' for GCGCAGCAAUAUUACGACCU top bin

---

# TEST NAME: self-splicing fitness, log relative to wild type (ln ratio); higher = more splicing; Tetrahymena group I intron in knt gene, E. coli kanamycin selection, DiMSum; sequences stand for … in CUCUCU…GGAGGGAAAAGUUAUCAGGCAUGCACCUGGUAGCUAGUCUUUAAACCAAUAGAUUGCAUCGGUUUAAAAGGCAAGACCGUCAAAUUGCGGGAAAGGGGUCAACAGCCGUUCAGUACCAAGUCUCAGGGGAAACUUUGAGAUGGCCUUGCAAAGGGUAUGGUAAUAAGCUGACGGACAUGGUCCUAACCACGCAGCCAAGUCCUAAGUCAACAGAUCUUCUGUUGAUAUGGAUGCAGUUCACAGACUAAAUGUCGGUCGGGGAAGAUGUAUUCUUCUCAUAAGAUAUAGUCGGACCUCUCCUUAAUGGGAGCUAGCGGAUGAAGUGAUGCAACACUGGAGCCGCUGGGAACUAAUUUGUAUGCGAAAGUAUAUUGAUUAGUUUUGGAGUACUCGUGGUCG
# PARTICULARS: 37 °C
Decide using self-splicing fitness (ln): a value greater than or equal to -2 is 1 (yes), a smaller one is 0 (no).

Past entries and their recorded results:
# INPUT SEQUENCE, CLASS ASSIGNMENT
measured = [
    ("UUACAGCAAUAUUACGGCUA", "1 (yes)"),
    ("CAUAAGCAAUAUUACGAAAC", "0 (no)"),
    ("AGACAGCAAUAUUACGGGAC", "0 (no)"),
    ("UCUGAGCAAUAUUACGCAGU", "1 (yes)"),
]

Let's switch to this sequence now.
Please indicate if the recorded self-splicing fitness (ln) for AGGGAGCAAUAUUACGGACA meets or exceeds -2. 0 (no)

---

# TEST NAME: self-splicing fitness, log relative to wild type (ln ratio); higher = more splicing; Tetrahymena group I intron in knt gene, E. coli kanamycin selection, DiMSum; sequences stand for … in CUCUCU…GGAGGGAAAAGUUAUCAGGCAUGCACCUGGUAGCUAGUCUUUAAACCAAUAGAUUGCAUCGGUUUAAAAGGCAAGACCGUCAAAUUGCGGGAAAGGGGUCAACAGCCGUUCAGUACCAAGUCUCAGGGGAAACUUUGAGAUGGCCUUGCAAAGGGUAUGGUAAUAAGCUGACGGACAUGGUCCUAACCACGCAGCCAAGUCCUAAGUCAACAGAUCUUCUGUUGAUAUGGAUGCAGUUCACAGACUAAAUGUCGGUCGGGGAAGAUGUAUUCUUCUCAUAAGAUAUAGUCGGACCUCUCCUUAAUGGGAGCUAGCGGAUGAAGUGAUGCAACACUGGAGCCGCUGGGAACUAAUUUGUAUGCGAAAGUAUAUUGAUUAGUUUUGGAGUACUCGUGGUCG
# PARTICULARS: 37 °C
Readings of self-splicing fitness (ln) for the listed sequences
Answer field: number only, no words.

# INPUT SEQUENCE, self-splicing fitness (ln)
records = [
    ("GGGGAGCAAUAUUACGUCUA", -2.6),
]

Value of self-splicing fitness (ln) reported for the sequence AGGAAGCAAUAUUACGGCUG is -0.0568

Value of self-splicing fitness (ln) reported for the sequence GGGGAGCAAUAUUACGUCGU is -1.63

Value of self-splicing fitness (ln) reported for the sequence CAUUAGCAAUAUUACGGUGC is -2.34

Value of self-splicing fitness (ln) reported for the sequence CCUCAGCAAUAUUACGAGCU is -1.9

Value of self-splicing fitness (ln) reported for the sequence UAUAAGCAAUAUUACGACAC is -1.05

Value of self-splicing fitness (ln) reported for the sequence AGACAGCAAUAUUACGCGUC is -2.08
